The measured values listed here are drawn from PubChem BioAssay AID1159580.

- test_method_notes: chemical genetic growth profiling, strain panel (AID 1159580);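 also: tested at 20 µM; growth read once vehicle control cultures reached saturation at 30 °C; 1 = growth at the plate median or of vehicle wells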
- assay_setup: S. cerevisiae deletion strains, growth OD, locus YOL147C, strain pex11, stronger effect = lower value
The campaign covered roughly 5,500 compounds. About 2,000 (36%) were called active. Another 18% or so got no clear call; they are omitted. The list shows a part of the results.
I'd be grateful if you could share measured normalized growth for these entries.
Kindly provide the number alone.

Can you share its normalized growth? I mean this molecule: "CCC1(c2ccccc2)C(=O)NCNC1=O"
0.988

Which normalized growth is listed for "COc1ccc2c(c1)OC[C@@H](Cc1ccc(OC)c(OC)c1)[C@@H]2O" ?
0.985

# get_value(readout='normalized growth', item= "NC(=O)N1c2ccccc2CC(=O)c2ccccc21" )
0.991

May I ask what normalized growth has been recorded for CC(C(=O)O)c1ccc2c(c1)[nH]c1ccc(Cl)cc12 (centres undefined) ?
0.974

Query: normalized growth; subject: "CC(=O)OCC(CCn1cnc2cnc(N)nc21)COC(C)=O"
0.969

Request the reported normalized growth associated with COc1cc2c(cc1OC)C(=O)C(CC1CCN(Cc3ccccc3)CC1)C2 (centres undefined)
0.976

Look up normalized growth for this molecule: "CC[C@@H](CO)NCCN[C@@H](CC)CO"
0.997

Fill blank: measured normalized growth of the molecule CCc1cccc(C)c1N(C(=O)CCl)C(C)COC (centres undefined) is ____.
1.02

# input molecule: CCC(C(=O)O)c1ccccc1 (centres undefined) ; wanted: its normalized growth
0.998

Using the record for "COc1ccc2c(c1)[C@@]1(C)CCC(=O)C[C@H]1CC2" , report its normalized growth.
0.967

Which normalized growth reading was recorded for the molecule "Cc1ccc(O)cc1" ?
1.01

For the molecule "COc1cc(OC)c2c(c1)O[C@H](c1ccc(OC)c(OC)c1)[C@@H](O)C2" , what normalized growth is on record?
1.01

Entry "O=C(/C=C/C=C/c1ccc2c(c1)OCO2)N1CCCCC1" : reported normalized growth = ?
0.951

Requested field: normalized growth. Item: "COc1ccc2c(c1)OC[C@@H](Cc1ccc(OC)c(OC)c1)[C@H]2O"
0.983

Item under review: "NC(=O)c1ncn([C@@H]2O[C@H](CO)[C@@H](O)[C@H]2O)c1O" . Reported normalized growth?
0.999

What value of normalized growth has been recorded for this entry: "COc1ccc(C[C@H]2NC[C@H](O)[C@H]2OC(C)=O)cc1"
0.884

Which value of normalized growth has been reported for CCC1(C)CC(=O)NC1=O (centres undefined) in the records?
1.01

Entry "CN=C(NC#N)NCCSCc1nc[nH]c1C" has what normalized growth?
0.973

normalized growth lookup needed for "C/C=C(/C(=C/C)c1ccc(O)cc1)c1ccc(O)cc1" , thanks.
0.839

// query normalized growth value for entry "Oc1c(Cl)c(Cl)c(Cl)c(Cl)c1Cl"
0.603

# input molecule: "OCc1ccccc1O[C@@H]1O[C@H](CO)[C@@H](O)[C@H](O)[C@H]1O" ; wanted: its normalized growth
1

If you can, please state the reported normalized growth value of OCC(O)Cc1ccc2c(c1)OCO2 (centres undefined) .
1

Quick one: normalized growth for "COc1ccc(C(=O)c2ccccc2O)c(O)c1" ?
0.924

Which normalized growth is listed for "O=c1ccc2cc(O)c(O)cc2o1" ?
0.997

Any idea what its normalized growth is? The molecule is COc1ccc2c(c1)C1(C)CCC(=O)CC1CC2 (centres undefined)
0.988

Requested read-out: normalized growth. Entry: "COc1ccc(C(=O)c2ccccc2)c(O)c1"
0.846

Endpoint output: normalized growth of "COc1cc(O)c2c(=O)cc(C)oc2c1CC=C(C)C" . Value?
0.818

Item "COc1ccc(-c2coc3c(OC)c(O)ccc3c2=O)cc1" has what recorded normalized growth?
0.966

Give the measured normalized growth of "CC(=C(CCOP(=O)(O)O)SC(=O)c1ccccc1)N(C=O)Cc1cnc(C)nc1N" .
1.02
